This collection of values is drawn from ChEMBL document CHEMBL3397016.

Assignment: determine reported Activity for the given compounds.
target-system: Prostaglandin G/H synthase 1 (Ovis aries) (UniProt P05979)
Sequence (P05979 whole entry): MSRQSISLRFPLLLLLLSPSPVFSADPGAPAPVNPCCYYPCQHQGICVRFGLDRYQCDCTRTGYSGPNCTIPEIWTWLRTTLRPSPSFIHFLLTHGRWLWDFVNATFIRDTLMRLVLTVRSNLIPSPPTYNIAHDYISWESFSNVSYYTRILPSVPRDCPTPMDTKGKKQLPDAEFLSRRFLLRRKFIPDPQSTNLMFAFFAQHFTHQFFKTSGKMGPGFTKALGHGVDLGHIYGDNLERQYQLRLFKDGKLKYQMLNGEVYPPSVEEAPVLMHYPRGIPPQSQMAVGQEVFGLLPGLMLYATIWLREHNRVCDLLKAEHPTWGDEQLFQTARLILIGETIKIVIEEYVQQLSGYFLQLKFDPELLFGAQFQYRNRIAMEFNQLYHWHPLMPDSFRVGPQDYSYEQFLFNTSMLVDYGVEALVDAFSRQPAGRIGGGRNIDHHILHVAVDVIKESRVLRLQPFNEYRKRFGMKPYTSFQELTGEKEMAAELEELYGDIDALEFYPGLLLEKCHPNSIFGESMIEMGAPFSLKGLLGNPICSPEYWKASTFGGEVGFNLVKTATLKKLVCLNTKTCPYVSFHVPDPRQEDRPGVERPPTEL
assay-comment: Inhibition of ovine COX1-mediated 12-HHT formation assessed as remaining activity at 10 uM preincubated for 5 mins before arachidonic acid addition by HPLC analysis
One number for each entry, in %.

// worked examples, Activity included
smiles-entry	Activity (%)
CCCC/C(=C\c1cc(OCc2csc(-c3ccc(C(F)(F)F)cc3)n2)ccc1OCc1ccc(C(F)(F)F)cc1)C(=O)O	73.5
CCCC/C(=C\c1cc(OCc2ccccc2)ccc1OCc1ccc(C(F)(F)F)cc1)C(=O)O	86.6
CCCC/C(=C\c1cc(OCC(c2ccccc2)c2ccccc2)ccc1OCc1ccc(C(F)(F)F)cc1)C(=O)O	61.1

Consider now this further compound.
Incoming: Can you share its Activity? I mean this compound: `CCCC/C(=C\c1cc(OCc2cc(C(F)(F)F)cc(C(F)(F)F)c2)ccc1OCc1ccc(C(F)(F)F)cc1)C(=O)O`
Outgoing: 62.4
